# Test system: HT29 colon
# Run Description: NCI tumour cell line growth inhibition, 48 h
Listing: TGI of selected molecules
Endpoint: TGI

INSERT INTO results (molecule, endpoint, result) VALUES
  ('COc1ccc(-c2cc(C(=O)Nc3cccc(C(F)(F)F)c3)[nH]c(=S)n2)cc1', 'TGI', '> 100 µM'),
  ('C=CC1CC12C(=O)C1OC2(C)C2C(=O)c3ccccc3C(=O)C12 (stereo unspecified)', 'TGI', '> 100 µM'),
  ('CCOc1ccc(NC(=O)Nc2cc(C(C)C)ccc2C)cc1', 'TGI', '> 100 µM'),
  ('On1c(-c2ccccc2)c(-c2c(-c3ccccc3)n(O)c3ccccc23)c2ccccc21', 'TGI', '> 100 µM'),
  ('c1cc(-c2cscc2-c2ccsc2)cs1', 'TGI', '> 100 µM'),
  ('CCOn1cc(C[C@@]2(O)C(=O)OC3[C@@H](O)CO[C@@]32O)c2ccccc21 (stereo partly specified)', 'TGI', '> 100 µM');
